Values compiled from patent US20230053688A1.

system: LMP1 expression in Kem I cells; test: microbe, parasite or virus in culture; assay type: cell-based, EBV; conditions: human gammaherpesvirus 4, 48 h, read-out: Average LMP1 Fold Increase, Kem I cells, 2.5 uM, 48 hours, average of replicates 1 and 2
Where a name gives a salt, the structure may show the parent alone.
Returns: string. Value is label 1 if measured fold induction at 2.5 µM is below 0.6, and label 0 if it is greater than or equal to it.

MOLECULE: Cc1c(-c2ccc(O)cc2)n(Cc2ccc(OCCN3CCCCCC3)cc2)c2ccc(O)cc12 [Bazedoxifene HCl]
ASSIGNED LABEL: label 1
--
MOLECULE: CCCN[C@H]1CCc2nc(N)sc2C1 [Pramipexole]
ASSIGNED LABEL: label 0
--
MOLECULE: CC(=O)Nc1nc2c(Oc3cc(-c4ccc(C(F)(F)F)cc4)ncn3)cccc2s1
ASSIGNED LABEL: label 1
--
MOLECULE: CCn1c(=O)c2c(nc(/C=C/c3ccc(OC)c(OC)c3)n2C)n(CC)c1=O
ASSIGNED LABEL: label 0
--
MOLECULE: CN1C2CCCC1CC(NC(=O)c1nn(C)c3ccccc13)C2 (centres unmarked) [Granisetron HCl]
ASSIGNED LABEL: label 1
--
MOLECULE: CC(=O)OCC(=O)NCCCOc1cccc(CN2CCCCC2)c1 [Roxatidine Acetate HCl]
ASSIGNED LABEL: label 1

Now take the following molecule into account.
Exercise: Would you kindly verify if fold induction at 2.5 µM of COc1cc(N2CCC(N3CCN(C)CC3)CC2)ccc1Nc1ncc(Cl)c(Nc2ccccc2P(C)(C)=O)n1 is strictly less than 0.6?
Key: label 0
